assay: NCI Yeast Anticancer Drug Screen. Data for the bub3 strain (AID 167); settings: S. cerevisiae bub3 mutant strain, at 50.0 µM, stronger effect = higher value
Compounds without any hit were thinned out: in the full panel of roughly 79,000, 15% have a hit.
Measured endpoint: growth inhibition (%)
Numbers only, in %.

Known results for compounds:
compound=CCN(CC)CCCCCCNc1cc(C)cc2ccc(C)nc12 val=79.7
compound=Cc1ccc(NC(=S)SCc2ccc3c(c2)OCO3)cc1Cl val=99.2
compound=COc1ccc(/C=N/NC(=O)c2ccco2)cc1OC val=56.2
compound=CCCCCCCCCCCCCCCC[N+](C)(C)CC(=O)O val=99
compound=CCCC/C(=C\c1cc(Cl)c(O)c(Cl)c1)C(=O)O val=56

Report growth inhibition for every entry below.
1. N#C/C(=C\c1cccnc1)c1csc2ccccc12
2. CCOC(=O)C(Br)c1nc2ccccc2[nH]c1=O (configuration not stated)

94.2
81.6
